Attribution: ChEMBL document CHEMBL3860049

Reported inhibition values are given for each entry in this list.
- Tested on: Mycobacterium tuberculosis
- Method: Inhibition of Mycobacterium tuberculosis ThyX at 100 uM preincubated with enzyme followed by [5-3H]dUMP substrate addition measured after 30 mins in presence of 5,10-methylenetetrahydrofolate,NADPH and FAD by liquid scintillation counting
Report the figure in % without appending any unit label.

Known results for compounds:
CCCC(=O)C1C(=O)NC(=O)NC1=O : 11
CC[C@H](Sc1n[nH]c(=O)[nH]c1=O)C(=O)O : 5.7
O=c1[nH][nH]c(=O)c2[nH]cnc12 : 7.1
COc1ccc2[nH]c3c(O)nncc3c2c1 : 7
O=c1[nH]nc(Cl)c2nc[nH]c12 : 29

Okay, now this compound:
response.value for CSc1n[nH]c(=O)c2[nH]cnc12 (field: inhibition) = 10
